This collection of values is drawn from ChEMBL document CHEMBL4831522.

target: Cruzipain (Trypanosoma cruzi) (UniProt P25779); experiment: Inhibition of recombinant Trypanosoma cruzi cruzain using Z-FR-AMC as substrate and compound-enzyme complex preincubated for 5 mins in presence of 0.01% Triton-X100 by fluorometry relative to control
Sequence (P25779 123-467 limits assumed): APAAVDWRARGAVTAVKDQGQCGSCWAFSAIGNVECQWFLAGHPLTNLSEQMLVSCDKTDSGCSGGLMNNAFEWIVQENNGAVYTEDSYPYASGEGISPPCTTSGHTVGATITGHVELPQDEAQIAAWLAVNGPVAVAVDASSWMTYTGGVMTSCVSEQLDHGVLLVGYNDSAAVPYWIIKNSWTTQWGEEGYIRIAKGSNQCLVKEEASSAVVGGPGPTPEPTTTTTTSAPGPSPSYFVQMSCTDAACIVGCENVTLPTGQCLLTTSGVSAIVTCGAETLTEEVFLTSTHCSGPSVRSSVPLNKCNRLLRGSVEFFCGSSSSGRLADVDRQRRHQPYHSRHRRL
VALUE_TYPE: inhibition

- MOLECULAR_STRING: "OCCCNc1nc(Nc2cccc(F)c2)c2ccccc2n1"
  inhibition: "67%"

Memo: `Clc1ccc(Nc2nc(NCCN3CCOCC3)c3ccccc3n2)cc1` , reported inhibition: 67%

Memo: `OCCCNc1nc(NCc2ccccc2)c2ccccc2n1` , reported inhibition: 31%

Memo: `O=C(c1ccc(Nc2nc(NCCN3CCOCC3)c3ccccc3n2)cc1)N1CCOCC1` , reported inhibition: 63%

* * *

molecular target: Cruzipain (Trypanosoma cruzi) (UniProt P25779); experiment: Inhibition of recombinant Trypanosoma cruzi cruzain at 100 uM using Z-FR-AMC as substrate by fluorometry relative to control
VALUE_TYPE: inhibition
Returns: string containing the number followed by the unit.

Consider the worked cases shown below.
- MOLECULAR_STRING: "O=C(c1ccc(Nc2nc(NCc3ccccc3)c3ccccc3n2)cc1)N1CCOCC1"
  inhibition: "99%"
- MOLECULAR_STRING: "Oc1ccc(Nc2nc(NCc3ccccc3)c3ccccc3n2)cc1"
  inhibition: "100%"

Shifting focus to the compound that follows.
Memo: `OCCCNc1nc(NCCN2CCOCC2)c2ccccc2n1` , reported inhibition: 67%

* * *

biological target: Cruzipain (Trypanosoma cruzi); assay: Inhibition of recombinant Trypanosoma cruzi cruzain using Z-FR-AMC as substrate and compound-enzyme complex preincubated for 5 mins in presence of 0.001% Triton-X100 by fluorometry relative to control
Sequence (P25779 whole entry): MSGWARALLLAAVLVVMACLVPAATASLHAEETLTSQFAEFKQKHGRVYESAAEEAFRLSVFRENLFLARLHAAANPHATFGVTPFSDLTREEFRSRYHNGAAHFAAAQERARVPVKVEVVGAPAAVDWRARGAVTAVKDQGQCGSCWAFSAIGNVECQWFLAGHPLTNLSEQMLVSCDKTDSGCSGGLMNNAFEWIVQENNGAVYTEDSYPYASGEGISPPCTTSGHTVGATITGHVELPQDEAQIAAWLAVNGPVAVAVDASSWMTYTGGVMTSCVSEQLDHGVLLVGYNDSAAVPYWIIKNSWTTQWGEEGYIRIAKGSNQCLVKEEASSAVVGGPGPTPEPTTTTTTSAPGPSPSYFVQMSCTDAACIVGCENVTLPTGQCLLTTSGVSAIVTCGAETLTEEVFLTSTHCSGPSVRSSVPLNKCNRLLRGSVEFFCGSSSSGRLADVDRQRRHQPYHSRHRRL
The label depends only on inhibition: fulfilled if it is at least 50%, not fulfilled if it is smaller.

- MOLECULAR_STRING: "O=C(Nc1ccccc1)c1ccc(Nc2nc(NCc3ccccc3)c3ccccc3n2)cc1"
  EXPERIMENTAL_SYSTEM: "Cruzipain (Trypanosoma cruzi)"
  LABEL_VALUE: "fulfilled"

Query block: Could you verify whether the entry `OCCCNc1nc(Nc2ccc(Cl)cc2)nc2ccccc12` shows inhibition of no less than 50%?
Result block: not fulfilled

Query block: Could you verify whether the entry `O=C(c1ccc(Nc2nc(NCc3ccccc3)c3ccccc3n2)cc1)N1CCOCC1` shows inhibition of no less than 50%?
Result block: not fulfilled

Query block: Could you verify whether the entry `Clc1ccc(Nc2nc(NCc3ccccc3)c3ccccc3n2)cc1` shows inhibition of no less than 50%?
Result block: not fulfilled

* * *

molecular target: Cruzipain (Trypanosoma cruzi); experiment: Inhibition of recombinant Trypanosoma cruzi cruzain using Z-FR-AMC as substrate by fluorometry
pIC50: −log10 of the molar value.
The label depends only on pIC50: Met if it is at least 5, Not met if it is smaller.

- MOLECULAR_STRING: "Clc1ccc(Nc2nc(NCc3ccccc3)c3ccccc3n2)cc1"
  LABEL_VALUE: "Met"
- MOLECULAR_STRING: "OCCCNc1nc(Nc2cccc(F)c2)c2ccccc2n1"
  LABEL_VALUE: "Not met"
- MOLECULAR_STRING: "OCCCNc1nc(NCc2ccccc2)c2ccccc2n1"
  LABEL_VALUE: "Not met"
- MOLECULAR_STRING: "Clc1ccc(Nc2nc(NCCN3CCOCC3)c3ccccc3n2)cc1"
  LABEL_VALUE: "Met"
- MOLECULAR_STRING: "Oc1cccc(Nc2nc(NCc3ccccc3)c3ccccc3n2)c1"
  LABEL_VALUE: "Not met"

Query block: Could you verify whether the entry `O=C(c1ccc(Nc2nc(NCCCO)c3ccccc3n2)cc1)N1CCOCC1` shows pIC50 of no less than 5?
Result block: Not met

Query block: Could you verify whether the entry `c1ccc(CNc2nc(Nc3nccs3)nc3ccccc23)cc1` shows pIC50 of no less than 5?
Result block: Not met

* * *

biological target: Cruzipain (Trypanosoma cruzi); assay: Inhibition of recombinant Trypanosoma cruzi cruzain using Z-FR-AMC as substrate and compound-enzyme complex preincubated for 5 mins in presence of 0.1% Triton-X100 by fluorometry relative to control
VALUE_TYPE: inhibition (%)
A number alone suffices; assume %.

- MOLECULAR_STRING: "Oc1ccc(Nc2nc(NCc3ccccc3)c3ccccc3n2)cc1"
  inhibition, %: 40
- MOLECULAR_STRING: "Oc1cccc(Nc2nc(NCc3ccccc3)c3ccccc3n2)c1"
  inhibition, %: 33
- MOLECULAR_STRING: "Clc1ccc(Nc2nc(NCCN3CCOCC3)c3ccccc3n2)cc1"
  inhibition, %: 80
- MOLECULAR_STRING: "OCCCNc1nc(Nc2ccc(Cl)cc2)nc2ccccc12"
  inhibition, %: 35
- MOLECULAR_STRING: "O=C(c1ccc(Nc2nc(NCc3ccccc3)c3ccccc3n2)cc1)N1CCOCC1"
  inhibition, %: 49

Memo: `OCCCNc1nc(Nc2cccc(F)c2)c2ccccc2n1` , reported inhibition: 64

Memo: `COc1ccc(Nc2nc(NCc3ccccc3)c3ccccc3n2)cc1` , reported inhibition: 31

Memo: `O=C(c1ccc(Nc2nc(NCCN3CCOCC3)c3ccccc3n2)cc1)N1CCOCC1` , reported inhibition: 73

* * *

Measured inhibition by item
target: Cruzipain (Trypanosoma cruzi); experiment: Inhibition of recombinant Trypanosoma cruzi cruzain using Z-FR-AMC as substrate when compound was preincubated for 5 mins in presence of BSA and 0.001% Triton-X100 followed by further incubation for 5 mins in presence of enzyme relative to control; details: time 10.0 min
A number alone suffices; assume %.

Consider the worked cases shown below.
- MOLECULAR_STRING: "Clc1ccc(Nc2nc(NCc3ccccc3)c3ccccc3n2)cc1"
  UNIT_ABBREVIATION: "%"
  inhibition: 35
- MOLECULAR_STRING: "O=C(c1ccc(Nc2nc(NCCN3CCOCC3)c3ccccc3n2)cc1)N1CCOCC1"
  UNIT_ABBREVIATION: "%"
  inhibition: 42
- MOLECULAR_STRING: "OCCCNc1nc(Nc2cccc(F)c2)c2ccccc2n1"
  UNIT_ABBREVIATION: "%"
  inhibition: 57
- MOLECULAR_STRING: "Oc1ccc(Nc2nc(NCc3ccccc3)c3ccccc3n2)cc1"
  UNIT_ABBREVIATION: "%"
  inhibition: 55
- MOLECULAR_STRING: "c1ccc(CNc2nc(Nc3nccs3)nc3ccccc23)cc1"
  UNIT_ABBREVIATION: "%"
  inhibition: 53
- MOLECULAR_STRING: "O=C(c1ccc(Nc2nc(NCc3ccccc3)c3ccccc3n2)cc1)N1CCOCC1"
  UNIT_ABBREVIATION: "%"
  inhibition: 46

Memo: `Clc1ccc(Nc2nc(NCCN3CCOCC3)c3ccccc3n2)cc1` , reported inhibition: 62

Memo: `OCCCNc1nc(NCc2ccccc2)c2ccccc2n1` , reported inhibition: 30

* * *

biological target: UniProtKB P25779; assay: Competitive inhibition of Trypanosoma cruzi cruzain assessed as inhibition constant using varying levels of Z-FR-AMC as substrate by Michaelis-Menten analysis
VALUE_TYPE: Ki (nM)
A number alone suffices; assume nM.

- MOLECULAR_STRING: "O=C(c1ccc(Nc2nc(NCc3ccccc3)c3ccccc3n2)cc1)N1CCOCC1"
  VALUE_TYPE: "Ki"
  RESULT_VALUE: 3200

Shifting focus to the compound that follows.
Memo: `c1ccc(CNc2nc(Nc3ccccc3)nc3ccccc23)cc1` , reported Ki: 1700

* * *

molecular target: Cruzipain (Trypanosoma cruzi) (UniProt P25779); assay: Inhibition of recombinant Trypanosoma cruzi cruzain using Z-FR-AMC as substrate and compound-enzyme complex preincubated for 5 mins in presence of 0.1% Triton-X100 by fluorometry relative to control
VALUE_TYPE: inhibition (%)
A number alone suffices; assume %.

Consider the worked cases shown below.
- MOLECULAR_STRING: "O=C(c1ccc(Nc2nc(NCCCO)c3ccccc3n2)cc1)N1CCOCC1"
  UNIT_ABBREVIATION: "%"
  inhibition: 69
- MOLECULAR_STRING: "O=C(Nc1ccccc1)c1ccc(Nc2nc(NCc3ccccc3)c3ccccc3n2)cc1"
  UNIT_ABBREVIATION: "%"
  inhibition: 4

Shifting focus to the compound that follows.
Measured inhibition for this entry `OCCCNc1nc(NCc2ccccc2)c2ccccc2n1` on Cruzipain (Trypanosoma cruzi) (UniProt P25779): 33

* * *

test system: Trypanosoma cruzi; assay: Trypanocidal activity against amastigotes form of Trypanosoma cruzi CA-I/72 infected in mouse C2C12 cells assessed as inhibition of parasite replication incubated for 48 hrs by DAPI staining based microscopic analysis; type: functional, organism-based; settings: CA-I/72, C2C12, 48 h
Values of EC50 strictly less than 900 nM map to satisfied, and values of at least 900 nM map to not satisfied.

Examples from the recorded data:
- MOLECULAR_STRING: "Clc1ccc(Nc2nc(NCCN3CCOCC3)c3ccccc3n2)cc1"
  LABEL_VALUE: "not satisfied"
- MOLECULAR_STRING: "Clc1ccc(Nc2nccc(NCc3ccccc3)n2)cc1"
  LABEL_VALUE: "not satisfied"

As a next step, examine the compound that follows.
Query block: Please check: EC50 for `OCCCNc1nc(NCCN2CCOCC2)c2ccccc2n1` , strictly under 900 nM or not?
Result block: not satisfied
